Target: rTas1r2-rTas1r3 (Rattus norvegicus, UniProt Q923K1+Q9Z0R7)
Sequence (Q9Z0R7 20-843): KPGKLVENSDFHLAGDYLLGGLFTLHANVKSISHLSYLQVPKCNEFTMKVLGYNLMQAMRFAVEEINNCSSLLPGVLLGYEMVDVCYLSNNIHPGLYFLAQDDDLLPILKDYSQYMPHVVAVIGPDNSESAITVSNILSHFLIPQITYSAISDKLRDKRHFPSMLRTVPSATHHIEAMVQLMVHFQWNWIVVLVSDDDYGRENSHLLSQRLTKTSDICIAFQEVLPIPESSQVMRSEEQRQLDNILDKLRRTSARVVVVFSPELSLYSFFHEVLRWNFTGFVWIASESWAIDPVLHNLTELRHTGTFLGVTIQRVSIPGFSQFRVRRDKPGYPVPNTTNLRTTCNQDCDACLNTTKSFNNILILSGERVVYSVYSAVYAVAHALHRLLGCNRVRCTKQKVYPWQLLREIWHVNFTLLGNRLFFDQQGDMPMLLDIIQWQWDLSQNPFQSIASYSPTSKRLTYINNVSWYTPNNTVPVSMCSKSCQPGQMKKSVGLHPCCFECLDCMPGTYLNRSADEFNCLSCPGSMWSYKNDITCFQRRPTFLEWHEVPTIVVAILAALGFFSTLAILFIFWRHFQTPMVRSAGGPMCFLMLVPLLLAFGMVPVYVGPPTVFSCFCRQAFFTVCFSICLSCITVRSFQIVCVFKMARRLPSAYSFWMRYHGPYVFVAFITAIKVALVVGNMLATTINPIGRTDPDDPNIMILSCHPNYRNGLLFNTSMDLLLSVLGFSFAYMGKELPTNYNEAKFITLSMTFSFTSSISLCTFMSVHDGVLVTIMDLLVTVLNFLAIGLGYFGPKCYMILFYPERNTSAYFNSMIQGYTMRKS
Sequence (Q923K1 21-858): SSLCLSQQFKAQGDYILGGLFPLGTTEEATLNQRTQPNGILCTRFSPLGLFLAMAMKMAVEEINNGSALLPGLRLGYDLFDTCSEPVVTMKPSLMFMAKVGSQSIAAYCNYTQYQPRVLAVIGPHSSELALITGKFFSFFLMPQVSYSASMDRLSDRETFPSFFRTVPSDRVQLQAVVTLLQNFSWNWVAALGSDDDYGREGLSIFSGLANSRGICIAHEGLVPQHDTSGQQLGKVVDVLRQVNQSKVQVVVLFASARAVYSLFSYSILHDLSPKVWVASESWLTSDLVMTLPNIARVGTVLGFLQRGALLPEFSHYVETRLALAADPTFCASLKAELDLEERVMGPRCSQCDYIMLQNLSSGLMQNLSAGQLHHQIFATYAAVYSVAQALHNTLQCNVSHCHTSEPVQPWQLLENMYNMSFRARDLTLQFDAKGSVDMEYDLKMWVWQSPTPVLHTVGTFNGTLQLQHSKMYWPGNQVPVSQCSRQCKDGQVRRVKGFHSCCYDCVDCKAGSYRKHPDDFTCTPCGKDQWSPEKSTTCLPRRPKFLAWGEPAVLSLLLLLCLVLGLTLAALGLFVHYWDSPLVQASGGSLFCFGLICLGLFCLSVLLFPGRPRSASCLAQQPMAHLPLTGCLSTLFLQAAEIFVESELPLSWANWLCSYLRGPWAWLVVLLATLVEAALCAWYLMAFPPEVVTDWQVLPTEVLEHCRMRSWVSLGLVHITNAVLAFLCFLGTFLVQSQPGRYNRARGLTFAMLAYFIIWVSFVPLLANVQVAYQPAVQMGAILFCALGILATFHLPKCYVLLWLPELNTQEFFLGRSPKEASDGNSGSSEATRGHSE
Experiment: Calcium mobilization (FLIPR) in transfected HEK293T-Gα16gust44 cells, rat sweet receptor
Conditions: asp 15 mM; cyc 30 mM; neo 0.1 mM; sac 10 mM; suc 100 mM; stev 1 mM
Where a SMILES comes first, the peptide text is derived from it.
experimentalEndpoint: activation of receptor (calcium response)

molecule: OC[C@H]1O[C@@](CO)(O[C@H]2O[C@H](CO)[C@@H](O)[C@H](O)[C@H]2O)[C@@H](O)[C@@H]1O
assayValue: robustly activated

molecule: C=C1C[C@@]23CC[C@H]4[C@@](C)(CCC[C@@]4(C)C(=O)O[C@@H]4O[C@H](CO)[C@@H](O)[C@H](O)[C@H]4O)[C@@H]2CC[C@]1(O[C@@H]1O[C@H](CO)[C@@H](O)[C@H](O)[C@H]1O[C@@H]1O[C@H](CO)[C@@H](O)[C@H](O)[C@H]1O)C3 [stevioside]
assayValue: robustly activated

molecule: O=S(=O)(O)NC1CCCCC1 [cyclamate]
assayValue: did not activate

molecule: COC(=O)[C@H](Cc1ccccc1)NC(=O)[C@@H](N)CC(=O)O [aspartame] (HELM PEPTIDE1{D.F.[CO[*:1]]}$$$$V2.0)
assayValue: did not activate

Continue with the next molecule.
Using the record for COc1ccc(CCC(=O)c2c(O)cc(O[C@@H]3O[C@H](CO)[C@@H](O)[C@H](O)[C@H]3O[C@@H]3O[C@@H](C)[C@H](O)[C@@H](O)[C@H]3O)cc2O)cc1O [neohesperidine dihydrochalcone] , report its activation of receptor (calcium response).
did not activate
